# experimentDescription: Intrinsic clearance in human liver microsomes at 1 uM measured for 15 mins in presence of NADPH regenerating system measured per mg protein by LC-MS/MS analysis
# Assay type: ADME, Microsome
# testSettings: read-out: CLH
Readings of log10(microsomal CLint at […], 1 µM) for the listed compounds
assayReadout: log10(microsomal CLint at […], 1 µM) (log10 of the value in µL/min/mg)

smilesStr: CC(C)c1ccc([C@](O)(c2cnnc(N3CCCC3)c2)C2(C)CN(C)C2)cc1
log10(microsomal CLint at […], 1 µM): 2.68

smilesStr: CC(C)c1ccc([C@](O)(c2cncc(N3CCOCC3)c2)C2(C)CN(C)C2)cc1
log10(microsomal CLint at […], 1 µM): 2.14

smilesStr: CC(C)c1ccc([C@](O)(c2cccc(-c3noc(C4CCOCC4)n3)c2)C2(C)CN(C)C2)cc1
log10(microsomal CLint at […], 1 µM): 1.41

smilesStr: CC(C)c1ccc([C@](O)(c2cccc(-c3noc(C4(O)CCC4)n3)c2)C2(C)CN(C)C2)cc1
log10(microsomal CLint at […], 1 µM): 1.54

smilesStr: CC(C)c1ccc([C@](O)(c2cccc(-c3noc(CC(C)(C)O)n3)c2)C2(C)CN(C)C2)cc1
log10(microsomal CLint at […], 1 µM): 1.30

* * *

# experimentDescription: AUC in Wistar rat at 3 mg/kg, iv
# Type: ADME, organism-based
# testSettings: in vivo
assayReadout: AUC

smilesStr: CC(C)c1ccc([C@](O)(c2cccc(-c3noc(C(C)(C)O)n3)c2)C2(C)CN(C)C2)cc1
recordedResult: 443 ng·h/mL

* * *

# experimentDescription: Cmax in Wistar rat at 10 mg/kg, po
# Format: ADME, organism-based
# testSettings: in vivo
assayReadout: Cmax (ng/mL)

compound: CN1CC(C)(C(O)(c2ccc(OC(F)(F)F)cc2)c2cncc(N3CCCC3)c2)C1 (racemic)
readoutUnit: ng/mL
recordedResult: 110

* * *

# experimentDescription: Half life in Beagle dog at 1 mg/kg, iv
# Assay type: ADME, organism-based, Canis lupus familiaris
# testSettings: in vivo

smilesStr: CC(C)c1ccc([C@](O)(c2cccc(-c3noc(C(C)(C)O)n3)c2)C2(C)CN(C)C2)cc1
half-life: 4.7 h

* * *

# experimentDescription: AUC in Beagle dog at 10 mg/kg, po
# Assay type: ADME, organism-based, Canis lupus familiaris
# testSettings: in vivo

smilesStr: CC(C)c1ccc([C@](O)(c2cccc(-c3noc(C(C)(C)O)n3)c2)C2(C)CN(C)C2)cc1
readoutUnit: ng·h/mL
AUC: 4160

* * *

# measurementTarget: UniProtKB P51684
# Sequence (P51684 whole entry): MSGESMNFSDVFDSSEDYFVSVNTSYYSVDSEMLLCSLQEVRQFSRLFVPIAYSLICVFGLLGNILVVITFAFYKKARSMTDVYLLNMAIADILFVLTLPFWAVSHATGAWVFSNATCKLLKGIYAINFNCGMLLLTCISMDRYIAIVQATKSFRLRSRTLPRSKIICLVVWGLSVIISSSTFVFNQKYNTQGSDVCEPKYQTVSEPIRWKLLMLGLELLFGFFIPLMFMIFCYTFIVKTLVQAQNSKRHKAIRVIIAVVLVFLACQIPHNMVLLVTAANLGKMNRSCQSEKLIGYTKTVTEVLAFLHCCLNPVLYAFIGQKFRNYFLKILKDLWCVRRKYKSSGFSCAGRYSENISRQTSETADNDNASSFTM
# experimentDescription: Antagonist activity at human CCR6 expressed in HEK293 cells assessed as inhibition of CCL20-stimulated intracellular calcium mobilization by Fluo-8-AM based FLIPR analysis
Below is a list of entries, each paired with its recorded log10 IC50 value.
assayReadout: log10 IC50 (log10 of the value in µM)

compound: CN1CC(CO)(C(O)(c2ccc(OC(F)(F)F)cc2)c2cccc(Cl)c2)C1 (racemic)
log10 IC50: 0.55
--
compound: CC(C)c1ccc(C(O)(c2cccc(N3CCCC3)n2)C2(C)CN(C)C2)cc1 (racemic)
log10 IC50: 0.08
--
compound: CN1CC(C(N)=O)(C(O)(c2ccc(OC(F)(F)F)cc2)c2cccc(Cl)c2)C1 (racemic)
log10 IC50: 0.22
--
compound: CN1CC(C#N)(C(O)(c2ccc(OC(F)(F)F)cc2)c2cccc(Cl)c2)C1 (racemic)
log10 IC50: -0.12
--
compound: CN1CC(C)(C(O)(c2ccc(OC(F)(F)F)cc2)c2ccccc2Cl)C1 (racemic)
log10 IC50: 0.94
--
compound: CN1CC(C(O)(c2ccccc2)c2ccc(OC(F)(F)F)cc2)C1 (stereo not given)
log10 IC50: 0.97
--
compound: CN1CC(O)(C(O)(c2ccc(OC(F)(F)F)cc2)c2cccc(Cl)c2)C1 (racemic)
log10 IC50: 0.31
--
compound: CN1CCC(C)(C(O)(c2ccccc2)c2ccc(OC(F)(F)F)cc2)C1 (stereo not given)
log10 IC50: 0.16

* * *

# experimentDescription: Intrinsic clearance in human liver microsomes at 1 uM measured for 15 mins in presence of NADPH regenerating system measured per mg protein by LC-MS/MS analysis
# Type: ADME, Microsome
# testSettings: read-out: CLH

compound: CC(C)c1ccc([C@](O)(c2cccc(-c3noc(C(C)(O)C(F)(F)F)n3)c2)C2(C)CN(C)C2)cc1 (stereo partly specified)
comparisonOperator: =
microsomal CLint at […], 1 µM, µL/min/mg: 15

compound: CN1CC(C)(C(O)(c2ccc(OC(F)(F)F)cc2)c2cncc(N3CCCC3)c2)C1 (racemic)
comparisonOperator: =
microsomal CLint at […], 1 µM, µL/min/mg: 146

compound: CC(C)c1ccc([C@](O)(c2cncc(N3CC4CC(C3)O4)c2)C2(C)CN(C)C2)cc1
comparisonOperator: =
microsomal CLint at […], 1 µM, µL/min/mg: 20

compound: CC(C)c1ccc([C@](O)(c2cccc(-c3noc(C(C)(C)O)n3)c2)C2(C)CN(C)C2)cc1
comparisonOperator: <
microsomal CLint at […], 1 µM, µL/min/mg: 10

compound: CC(C)c1ccc([C@](O)(c2cnnc(N3CC4(CC4)CC3=O)c2)C2(C)CN(C)C2)cc1
comparisonOperator: <
microsomal CLint at […], 1 µM, µL/min/mg: 10

compound: CC(C)c1ccc(C(O)(c2cccc(-c3nc(C4CCOCC4)no3)c2)C2(C)CN(C)C2)cc1 (single isomer, unassigned)
comparisonOperator: =
microsomal CLint at […], 1 µM, µL/min/mg: 68

* * *

# experimentDescription: Intrinsic clearance in dog liver microsomes at 1 uM measured for 15 mins in presence of NADPH regenerating system by LC-MS/MS analysis
# Type: ADME, Canis lupus familiaris, Microsome
# testSettings: read-out: CLH
assayReadout: microsomal CLint at […], 1 µM (µL/min/mg)

smilesStr: CC(C)c1ccc([C@](O)(c2cccc(-c3noc(C(C)(C)O)n3)c2)C2(C)CN(C)C2)cc1
recordedResult: 17

* * *

# experimentDescription: Volume of distribution at steady state in Wistar rat at 3 mg/kg, iv
# Type: ADME, organism-based
# testSettings: in vivo, read-out: Vdss
assayReadout: Vd (L/kg)

smilesStr: CC(C)c1ccc([C@](O)(c2cccc(-c3noc(C(C)(C)O)n3)c2)C2(C)CN(C)C2)cc1
assayReadout: Vd
readoutUnit: L/kg
recordedResult: 23

* * *

# experimentDescription: Cmax in Beagle dog at 1 mg/kg, iv
# Assay type: ADME, organism-based, Canis lupus familiaris
# testSettings: in vivo
assayReadout: Cmax (ng/mL)

smilesStr: CC(C)c1ccc([C@](O)(c2cccc(-c3noc(C(C)(C)O)n3)c2)C2(C)CN(C)C2)cc1
readoutUnit: ng/mL
recordedResult: 103

* * *

# experimentDescription: Intrinsic clearance in human hepatocytes in presence of ABT measured per million cells
# Format: ADME, cell-based, Hepatocyte
# testSettings: with ABT, read-out: CLH
assayReadout: hepatocyte CLint

smilesStr: CC(C)c1ccc([C@](O)(c2cccc(-c3noc(C(C)(C)O)n3)c2)C2(C)CN(C)C2)cc1
assayReadout: hepatocyte CLint
recordedResult: < 2 µL/min/1e6 cells

* * *

# Lookup of reported pKa keyed by entry
# experimentDescription: Dissociation constant, pKa of the compound by potentiometric titration based UV-Vis spectrophotometry
assayReadout: pKa

molecule: CN1CC(C(N)=O)(C(O)(c2ccc(OC(F)(F)F)cc2)c2cccc(Cl)c2)C1 (racemic)
recordedResult: 8.1
--
molecule: CN1CC(F)(C(O)(c2ccc(OC(F)(F)F)cc2)c2cccc(Cl)c2)C1 (racemic)
recordedResult: 7.9
--
molecule: CN1CC(O)(C(O)(c2ccc(OC(F)(F)F)cc2)c2cccc(Cl)c2)C1 (racemic)
recordedResult: 8.8
--
molecule: CN1CC(CO)(C(O)(c2ccc(OC(F)(F)F)cc2)c2cccc(Cl)c2)C1 (racemic)
recordedResult: 9.1
--
molecule: CN1CC(C#N)(C(O)(c2ccc(OC(F)(F)F)cc2)c2cccc(Cl)c2)C1 (racemic)
recordedResult: 6.4

* * *

# experimentDescription: Tmax in Wistar rat at 100 mg/kg, po
# Assay type: ADME, organism-based
# testSettings: in vivo

smilesStr: CC(C)c1ccc([C@](O)(c2cccc(-c3noc(C(C)(C)O)n3)c2)C2(C)CN(C)C2)cc1
Tmax: 18 min

* * *

# experimentDescription: Solubility of the compound at pH <[…] at 37 degC
# Type: physicochemical
assayReadout: solubility

smilesStr: CC(C)c1ccc([C@](O)(c2cccc(-c3noc(C(C)(C)O)n3)c2)C2(C)CN(C)C2)cc1
recordedResult: > 10 mg/mL

* * *

# experimentDescription: AUC in Wistar rat at 10 mg/kg, po
# Format: ADME, organism-based
# testSettings: in vivo

compound: CN1CC(C)(C(O)(c2ccc(OC(F)(F)F)cc2)c2cncc(N3CCCC3)c2)C1 (racemic)
AUC / ng·h/mL: 165
